B1: Tudor domain-containing protein 3, residues 554 to 611; numbered along this chain, Q9H7E2 (parent)
chain: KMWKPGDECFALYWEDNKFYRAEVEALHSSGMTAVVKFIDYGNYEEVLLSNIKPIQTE

Variants of: B1
ASSAY_NOTES: abundance fitness (aPCA) (normalised: wild type 0, dead -1); higher = more abundant; growth selection in yeast, the domain comes from the species named
TEST_CONTEXT: Homo sapiens
MEASUREMENT_TYPE: abundance fitness
I only need the number, thanks.

Observe how each entry below is paired with its result.
INSERT INTO results (sequence_change, measurement_type, endpoint_result) VALUES
  ('K37D', 'abundance fitness', -0.74),
  ('Y20I', 'abundance fitness', -0.347),
  ('A26I', 'abundance fitness', -0.16);

Next:
Entry F38D — recorded abundance fitness = -0.764
